# TARGET: HLA-A02.01 (human)
# PROCEDURE TEXT: competition vs radiolabeled reference peptide on purified MHC I, gel filtration
Label yes when IC50 < 500 nM; otherwise no.

Input LQMDFLVHPA (likely a print error; also called APC, VHPA) […] ; condition: IC50 strictly below 500 nM. Does it hold? yes

Input SVCFFFFCYI (also called CNOT1(-1)) ; condition: IC50 strictly below 500 nM. Does it hold? no

Input PLSDLLLEML (also called E5R1, Y537S (so in the source); ESR1, Y537S) ; condition: IC50 strictly below 500 nM. Does it hold? no

Input FKLFSCLSFL (also called C15ORF40(+1)) ; condition: IC50 strictly below 500 nM. Does it hold? no

Input YIIIEFMTYG (also called ABL1, T315I) ; condition: IC50 strictly below 500 nM. Does it hold? yes

Input NVVPLSDLLL (also called ESR1, Y537S) ; condition: IC50 strictly below 500 nM. Does it hold? no

Input KLFSCLSFLS (also called C15ORF40(+1)) ; condition: IC50 strictly below 500 nM. Does it hold? yes

Input KGPELFPLI (also called C11orf95: RELA) ; condition: IC50 strictly below 500 nM. Does it hold? yes

Input AQAGVQWRSL (also called C15ORF40(+1)) ; condition: IC50 strictly below 500 nM. Does it hold? no

Input NVVPLSDLL (also called ESR1, Y537S) ; condition: IC50 strictly below 500 nM. Does it hold? no

Input NVVPLNDLLL (also called ESR1, Y537N) ; condition: IC50 strictly below 500 nM. Does it hold? no

Input NVVPLCDLLL (also called ESR1, Y537C) ; condition: IC50 strictly below 500 nM. Does it hold? no
